Tested on: gastric epithelial adenocarcinoma (AGS) cells
Assay: Antiproliferative assay (MTT reduction, 3 days)
Assay type: cell-based, human
Conditions: >100 µM considered inactive, read-out: IC50 ± SD, AGS
measurementKind: pIC50
// field semantics: pIC50 = negative decimal log of concentration (mol/L)

{"columns": ["compound", "pIC50"],
 "data": [
  ["COC(=O)C12CCCC(C)(C)C1CCc1cc(C(C)C)c(OC(=O)CCc3cn(Cc4ccccc4)nn3)c(OC(=O)CCc3cn(Cc4ccccc4)nn3)c12 (stereo not shown) [Compound 11]", 4.05],
  ["CC(C)c1cc2c(c(OC(=O)CCc3cn(Cc4ccc([N+](=O)[O-])cc4)nn3)c1OC(=O)CCc1cn(Cc3ccc([N+](=O)[O-])cc3)nn1)C13CCCC(C)(C)C1CC2OC3=O (stereo not shown) [Compound 23]", 4.00],
  ["CC(C)c1cc2c3c(c1OC(=O)CCCc1cn(CSc4ccccc4)nn1)OC(=O)C31CCCC(C)(C)C1CC2 (stereo not shown) [Compound 2]", 4.39]
]}

Given the compound CC(C)c1cc2c3c(c1OC(=O)CCc1cn(CSc4ccccc4)nn1)OC(=O)[C@@]31CCCC(C)(C)[C@@H]1CC2 [Compound 1] , what is its reported pIC50? 4.41

// same read-out, input: CC(C)c1cc2c3c(c1OC(=O)CCc1cn(Cc4ccc([N+](=O)[O-])cc4)nn1)OC(=O)C31CCCC(C)(C)C1CC2 (stereo not shown) [Compound 7] 4.19

Please do the same for CC(C)c1cc2c3c(c1OC(=O)CCc1cn(Cc4ccccc4)nn1)OC(=O)[C@@]31CCCC(C)(C)[C@@H]1CC2 [Compound 3] as well. 4.31
